- Tested system: Oxytocin receptor (Rattus norvegicus)
- Sequence (P70536 whole entry): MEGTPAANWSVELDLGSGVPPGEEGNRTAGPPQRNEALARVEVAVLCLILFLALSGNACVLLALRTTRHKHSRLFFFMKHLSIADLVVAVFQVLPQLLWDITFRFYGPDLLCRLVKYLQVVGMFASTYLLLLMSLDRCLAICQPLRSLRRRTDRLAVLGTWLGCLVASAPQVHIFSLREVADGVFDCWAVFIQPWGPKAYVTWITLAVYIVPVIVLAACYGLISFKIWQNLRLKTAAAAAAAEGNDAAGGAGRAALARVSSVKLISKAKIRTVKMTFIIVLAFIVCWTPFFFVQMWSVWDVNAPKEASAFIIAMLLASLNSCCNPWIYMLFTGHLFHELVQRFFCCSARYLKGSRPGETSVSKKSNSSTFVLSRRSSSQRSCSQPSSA
Quantity: IC50 (nM)

Worked examples follow.
| Compound | Result unit | IC50 |
| --- | --- | --- |
| CC1(C)[C@@H]2CC[C@@]1(CS(=O)(=O)N1CCC3(C=Cc4ccccc43)CC1)[C@@](O)(CNC(=O)c1ccccn1)C2 | nM | 180 |
| CC1(C)[C@@H]2CC[C@@]1(CS(=O)(=O)N1CCC3(CCc4ccccc43)CC1)[C@@H](N1C(=O)CNC1=O)C2 | nM | 18 |
| CC1(C)[C@@H]2CC[C@@]1(CS(=O)(=O)N1CCC3(CCc4ccccc43)CC1)[C@@H](NC(N)=O)C2 | nM | 460 |

(a) CC1(C)[C@@H]2CC[C@@]1(CS(=O)(=O)N1CCC3(C=Cc4ccccc43)CC1)[C@@](O)(CNC(=O)C(N)CCS(C)(=O)=O)C2 (some centres not stated)
(b) CC1(C)[C@@H]2CC[C@@]1(CS(=O)(=O)N1CCC3(CCc4ccccc43)CC1)[C@@H](N1C(=O)CCC1C(=O)O)C2 (some centres not stated)
(c) CC1(C)[C@@H]2CC[C@@]1(CS(=O)(=O)N1CCC3(CCc4ccccc43)CC1)[C@@H](NC(=O)Cc1csc(N)n1)C2
Prompt line: List items by IC50 in falling order. Respond with the label ranking, as requested.
Response line: b, c, a
(b: 270 nM, c: 170 nM, a: 110 nM)

FYI, the data here is from ChEMBL document CHEMBL1126550.
